Each entry below carries its recorded IC50.
# system_tested: canine TRPM8 (Canis lupus familiaris, UniProt Q1A7N1)
# Construct: expressed in transfected cells
# Sequence (Q1A7N1 1-1104): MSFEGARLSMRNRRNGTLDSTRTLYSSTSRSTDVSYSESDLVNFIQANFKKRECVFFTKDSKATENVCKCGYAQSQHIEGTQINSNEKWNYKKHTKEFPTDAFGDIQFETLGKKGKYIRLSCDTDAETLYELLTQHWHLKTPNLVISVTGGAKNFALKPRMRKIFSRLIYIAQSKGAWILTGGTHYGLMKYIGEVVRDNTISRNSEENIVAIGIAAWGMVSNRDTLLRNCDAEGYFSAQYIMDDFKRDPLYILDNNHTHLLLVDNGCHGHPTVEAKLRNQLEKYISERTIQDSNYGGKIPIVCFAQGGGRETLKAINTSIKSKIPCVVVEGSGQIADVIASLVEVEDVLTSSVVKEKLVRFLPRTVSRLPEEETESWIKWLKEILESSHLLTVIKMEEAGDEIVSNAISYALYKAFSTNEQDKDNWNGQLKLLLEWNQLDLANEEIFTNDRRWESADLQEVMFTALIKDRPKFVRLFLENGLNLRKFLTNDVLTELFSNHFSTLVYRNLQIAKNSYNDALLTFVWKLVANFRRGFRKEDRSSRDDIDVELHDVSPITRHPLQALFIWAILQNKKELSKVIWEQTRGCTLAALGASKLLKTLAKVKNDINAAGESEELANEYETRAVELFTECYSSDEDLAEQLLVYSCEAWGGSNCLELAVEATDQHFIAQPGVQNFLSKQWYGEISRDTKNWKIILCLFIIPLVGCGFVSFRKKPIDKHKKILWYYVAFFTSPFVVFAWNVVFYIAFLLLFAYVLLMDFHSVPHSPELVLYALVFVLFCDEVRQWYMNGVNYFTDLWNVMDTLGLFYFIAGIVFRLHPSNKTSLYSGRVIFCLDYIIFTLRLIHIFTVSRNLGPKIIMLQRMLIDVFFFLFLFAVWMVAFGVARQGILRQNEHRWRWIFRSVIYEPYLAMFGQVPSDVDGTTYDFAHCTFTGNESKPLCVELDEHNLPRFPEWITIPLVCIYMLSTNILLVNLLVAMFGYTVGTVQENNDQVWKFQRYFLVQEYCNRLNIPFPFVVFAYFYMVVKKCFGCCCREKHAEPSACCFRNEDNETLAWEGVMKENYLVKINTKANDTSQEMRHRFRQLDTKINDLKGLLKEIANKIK
# experiment_description: In Vitro Canine TRPM8 Functional Assay (intracellular Ca2+ fluorescence, icilin activation, HEK293 cells)
# Type: cell-based
# test_parameters: HEK293 cells expressing canine TRPM8, icilin activation; individually measured values (batches/salt forms); read-out: IC50 (nM), in vitro TRP M8 Activity
Where a name gives a salt, the structure may show the parent alone.
readout_label: IC50

compound: CC(C)Cc1cc(-c2nc3cc(-c4ccccc4C(F)(F)F)ccc3[nH]2)on1 [Compound 22, hydrochloride]
readout_label: IC50
endpoint_value: 32 nM
--
compound: Cn1nc(C(C)(C)C)c(C(F)(F)F)c1-c1nc2cc(-c3ccccc3OC(F)(F)F)cc(C(F)(F)F)c2[nH]1 [Compound 188, sodium salt]
readout_label: IC50
endpoint_value: 35 nM
--
compound: CC(C)(C)c1cc(-c2nc3cc(-c4ccccc4C(F)(F)F)ccc3[nH]2)n(Cc2ccccc2)n1 [Compound 48, sodium salt]
readout_label: IC50
endpoint_value: 18.4 nM
--
compound: Cn1nc(C(C)(C)C)c(Cl)c1-c1nc2cc(-c3ccccc3OC(F)(F)F)ccc2[nH]1 [Compound 51, sodium salt]
readout_label: IC50
endpoint_value: 27 nM
--
compound: Cn1nc(C(F)(F)F)cc1-c1nc2cc(-c3ccccc3OC(F)(F)F)ccc2[nH]1 [Compound 41, sodium salt]
readout_label: IC50
endpoint_value: 133 nM
--
compound: CC(C)(C)c1cc(-c2nc3cc(-c4ccccc4OC(F)(F)F)ccc3[nH]2)n(Cc2ccccc2)n1 [Compound 49, sodium salt]
readout_label: IC50
endpoint_value: 42.3 nM
--
compound: Cn1nc(C(C)(C)C)c(C#N)c1-c1nc2cc(-c3c(F)cccc3OC(F)(F)F)cc(Cl)c2[nH]1 [Compound 173, sodium salt]
readout_label: IC50
endpoint_value: 10.7 nM
--
compound: Cn1nc(C(C)(C)C)c(C#N)c1-c1nc2cc(-c3ccccc3C(F)(F)F)cc(Cl)c2[nH]1 [Compound 169, sodium salt]
readout_label: IC50
endpoint_value: 8 nM
--
compound: FC(F)(F)c1ccccc1-c1ccc2[nH]c(-c3cc(Br)no3)nc2c1 [Compound 42, sodium salt]
readout_label: IC50
endpoint_value: 151 nM
--
compound: Cn1nc(C(C)(C)C)cc1-c1nc2cc(-c3ccccc3Cl)ccc2[nH]1 [Compound 59, trifluoroacetic acid salt]
readout_label: IC50
endpoint_value: 8.3 nM
--
compound: Cn1nc(C(C)(C)C)cc1-c1nc2cc(-c3ccccc3OC(F)(F)F)ccc2[nH]1 [Compound 14, sodium salt]
readout_label: IC50
endpoint_value: 44 nM

====

Each entry below carries its recorded IC50.
# system_tested: canine TRPM8 (Canis lupus familiaris, UniProt Q1A7N1)
# Construct: expressed in transfected cells
# experiment_description: In Vitro Canine TRPM8 Functional Assay (intracellular Ca2+ fluorescence, icilin activation, HEK293 cells)
# Format: cell-based
# test_parameters: HEK293 cells expressing canine TRPM8, icilin activation; individually measured values (batches/salt forms); read-out: IC50 (nM), in vitro TRP M8 Activity
Where a name gives a salt, the structure may show the parent alone.

molecule: CCC(CC)c1cc(-c2nc3ccc(-c4ccccc4C(F)(F)F)cc3[nH]2)on1 [Compound 26, hydrochloride]
IC50, nM: 39

molecule: Cc1oc(C(C)(C)C)cc1-c1nc2cc(-c3ccccc3F)ccc2[nH]1 [Compound 174, sodium salt]
IC50, nM: 33.4

molecule: CCCc1cc(-c2nc3ccc(-c4ccccc4C(F)(F)F)cc3[nH]2)on1 [Compound 18, hydrochloride]
IC50, nM: 27

molecule: Cc1c(C(C)(C)C)noc1-c1nc2cc(-c3ccccc3Cl)ccc2[nH]1 [Compound 107, hydrochloride]
IC50, nM: 11.9

molecule: CC(C)Cc1cc(-c2nc3ccc(-c4ccccc4OC(F)(F)F)cc3[nH]2)on1 [Compound 23, hydrochloride]
IC50, nM: 30

molecule: COc1ccc(F)cc1-c1ccc2[nH]c(-c3cc(C(C)(C)C)no3)nc2c1 [Compound 105, hydrochloride]
IC50, nM: 16.4

molecule: Cc1c(C(C)(C)C)nn(C)c1-c1nc2cc(-c3ccccc3C(F)(F)F)cc(C(F)(F)F)c2[nH]1 [Compound 120, hydrochloride]
IC50, nM: 2.1
